Ref: patent US20240376099A1

molecular target: TLR7 (Homo sapiens, UniProt Q9NYK1); construct: Fresh blood was collected from normal human donors; endogenous in cells; assay: huPBMC TLR7 Antagonist IFNα Assay; settings: human PBMCs stimulated with ssRNA40 10 μg/mL (DOTAP), 14-16 hrs; IFNα2b AlphaLISA read-out
Sequence (Q9NYK1 27-1049): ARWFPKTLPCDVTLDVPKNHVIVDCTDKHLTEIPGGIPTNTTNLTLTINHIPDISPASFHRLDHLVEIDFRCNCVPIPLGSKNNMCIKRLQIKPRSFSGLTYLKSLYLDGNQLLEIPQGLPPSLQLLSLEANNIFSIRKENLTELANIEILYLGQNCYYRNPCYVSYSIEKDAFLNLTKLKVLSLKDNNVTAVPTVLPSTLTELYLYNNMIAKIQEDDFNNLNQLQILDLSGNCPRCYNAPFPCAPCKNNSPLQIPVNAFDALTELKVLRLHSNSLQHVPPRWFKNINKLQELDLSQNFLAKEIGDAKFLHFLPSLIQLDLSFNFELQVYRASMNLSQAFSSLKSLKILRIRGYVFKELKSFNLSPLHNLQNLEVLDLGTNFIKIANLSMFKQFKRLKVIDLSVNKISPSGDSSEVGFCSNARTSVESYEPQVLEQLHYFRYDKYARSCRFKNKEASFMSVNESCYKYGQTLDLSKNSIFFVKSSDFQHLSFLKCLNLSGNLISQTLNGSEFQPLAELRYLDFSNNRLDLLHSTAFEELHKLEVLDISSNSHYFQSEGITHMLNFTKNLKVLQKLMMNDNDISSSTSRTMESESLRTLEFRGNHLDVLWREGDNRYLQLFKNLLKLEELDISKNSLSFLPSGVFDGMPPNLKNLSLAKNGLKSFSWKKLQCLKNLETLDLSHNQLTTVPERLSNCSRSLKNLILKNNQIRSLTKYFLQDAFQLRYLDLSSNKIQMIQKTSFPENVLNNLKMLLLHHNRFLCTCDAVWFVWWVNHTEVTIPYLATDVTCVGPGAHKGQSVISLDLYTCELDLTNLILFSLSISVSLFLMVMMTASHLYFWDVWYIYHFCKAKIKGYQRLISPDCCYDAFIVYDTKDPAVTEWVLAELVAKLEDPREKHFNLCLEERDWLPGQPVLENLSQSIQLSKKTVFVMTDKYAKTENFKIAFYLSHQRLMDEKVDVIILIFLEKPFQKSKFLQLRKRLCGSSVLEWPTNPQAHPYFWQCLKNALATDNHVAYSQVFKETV
Reported IC50 values for the following molecules.
Express it in µM; write the number only.

[2H]C([2H])([2H])n1ncc2c(N3CCc4c(c(C)nn4CC45CCC(N)(CC4)CC5)C3)cc(C)nc21	0.027
CN[C@@H](C)C(=O)NC12CCC(Cn3nc(C)c4c3CCN(c3cc(C)nc5c3cnn5C)C4)(CC1)CC2	0.002
Cc1nc(N2CCc3c(c(C)nn3CC34CCC(N(C5CCC5)C5CCC5)(CC3)CC4)C2)c2c(n1)c(C)nn2C	0.84

[in] Assign IC50 to the following record: Cc1cc(N2CCc3c(c(C)nn3CC34CCC(N5CCOCC5)(CC3)CC4)C2)c2cnn(C)c2n1
[out] 0.004

###

biological target: TLR7 (Homo sapiens, UniProt Q9NYK1); construct: Fresh blood was collected from normal human donors; endogenous in cells; test: huPBMC TLR7 Antagonist IFNα Assay; details: human PBMCs stimulated with ssRNA40 10 μg/mL (DOTAP), 14-16 hrs; IFNα2b AlphaLISA read-out
Label YES when IC50 is strictly below 10 nM; at or above that, label NO.

Cc1nc(N2CCc3c(c(C)nn3CC34CCC(N5CCCCC5)(CC3)CC4)C2)c2cnn(C)c2n1 [compound 39]	NO
Cc1c2c(nn1CC13CCC(N)(CC1)CC3)CCN(c1nc(N)nc3c1cnn3C)C2 [compound 14]	NO
Cc1cc(N2CCc3c(c(C)nn3CC34CCC(NC(=O)C5CNCCO5)(CC3)CC4)C2)c2cnn(C)c2n1 (stereo not drawn) [compound 125]	YES
Cc1nc(N2CCc3c(c(C)nn3CC34CCC(NC(=O)CCN(C)C)(CC3)CC4)C2)c2c(n1)c(C)nn2C [compound 24]	NO
COCCNC12CCC(Cn3nc(C)c4c3CCN(c3ccnc(-c5ccccc5)c3)C4)(CC1)CC2 [compound 130]	NO

[in] Hi there! Is IC50 for Cc1cc(N2CCc3c(c(C)nn3CC34CCC(NCC(F)F)(CC3)CC4)C2)c2cnn(C)c2n1 [Compound No. 61] below 10 nM, do you know?
[out] NO

[in] Please let me know if Cc1cc(N2CCc3c(c(C)nn3CC34CCC(N)(CC3)C4)C2)c2cnn(C)c2n1 [compound 44] shows IC50 below 10 nM.
[out] NO

[in] Is IC50 of CNC12CCC(Cn3nc(C)c4c3CCN(c3cc(C)nc5c3cnn5C)C4)(CC1)CC2 [Compound No. 50] strictly below 10 nM?
[out] YES

[in] # check: IC50 < 10 nM for Cc1cc(N2CCc3c(c(C)nn3CC34CCC(N5CCC5)(CC3)CC4)C2)c2cnn(C)c2n1 [compound 64]
[out] YES

[in] Say whether its IC50 is strictly beneath 10 nM. Entry: COCCNC12CCC(Cn3nc(C)c4c3CCN(c3cc(C)nc5c3cnn5C)C4)(CC1)CC2 [Compound No. 69]
[out] YES

###

target: TLR8 (Homo sapiens); experiment: huPBMC TLR8 Antagonist IL-6 TR-FRET Assay; format: cell-based; parameters: Fresh blood was collected from normal human donors; endogenous in cells; host or cells: human PBMCs from fresh donor blood; details: human PBMCs stimulated with ssRNA40 1 μg/ml (DOTAP), 14-16 hrs; IL-6 TR-FRET read-out
Sequence (Q9NR97 27-1041): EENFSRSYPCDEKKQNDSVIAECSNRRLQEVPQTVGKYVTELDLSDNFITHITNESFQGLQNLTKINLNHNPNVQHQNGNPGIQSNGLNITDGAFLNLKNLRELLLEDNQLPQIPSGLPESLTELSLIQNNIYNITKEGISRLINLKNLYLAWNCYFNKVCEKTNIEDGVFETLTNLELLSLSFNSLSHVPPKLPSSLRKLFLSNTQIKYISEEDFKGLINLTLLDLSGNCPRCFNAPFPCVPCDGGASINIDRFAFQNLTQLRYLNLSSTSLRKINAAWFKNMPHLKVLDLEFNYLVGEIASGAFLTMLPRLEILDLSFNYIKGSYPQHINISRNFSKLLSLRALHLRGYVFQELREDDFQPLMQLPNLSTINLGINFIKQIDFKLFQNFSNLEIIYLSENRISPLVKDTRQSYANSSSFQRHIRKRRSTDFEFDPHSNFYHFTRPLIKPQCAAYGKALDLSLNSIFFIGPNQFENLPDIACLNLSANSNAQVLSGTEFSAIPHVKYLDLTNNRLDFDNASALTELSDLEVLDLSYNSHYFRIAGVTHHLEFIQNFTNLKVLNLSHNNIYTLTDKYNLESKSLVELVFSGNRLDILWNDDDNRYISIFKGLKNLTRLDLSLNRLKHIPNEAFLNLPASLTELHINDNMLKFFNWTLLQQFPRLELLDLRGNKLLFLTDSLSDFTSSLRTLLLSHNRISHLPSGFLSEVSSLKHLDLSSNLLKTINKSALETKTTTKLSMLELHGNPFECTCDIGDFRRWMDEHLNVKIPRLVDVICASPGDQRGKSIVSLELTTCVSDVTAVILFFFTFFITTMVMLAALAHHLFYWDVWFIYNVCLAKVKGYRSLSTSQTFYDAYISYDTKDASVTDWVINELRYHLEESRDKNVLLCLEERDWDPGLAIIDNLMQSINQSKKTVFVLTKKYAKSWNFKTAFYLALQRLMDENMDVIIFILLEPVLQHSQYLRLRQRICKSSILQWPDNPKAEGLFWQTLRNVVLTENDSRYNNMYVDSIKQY
The following molecules are shown together with reported IC50 values.
Response body: numeric value in nM, unit text excluded.

Example entries and their recorded answers appear below.
COCC(C)NC12CCC(Cn3nc(C)c4c3CCN(c3cc(C)nc5c3cnn5C)C4)(CC1)CC2 (stereo not shown) [compound 96]	775
Cc1cc(N2CCc3c(c(C)nn3CC34CCC(N5CC[C@H](O)C5)(CC3)CC4)C2)c2cnn(C)c2n1 [compound 75]	134
Cc1cc(N2CCc3c(c(C)nn3CC34CCC(NC(=O)CO)(CC3)CC4)C2)c2cnn(C)c2n1 [Compound No. 135]	8440
CCOCCNC12CCC(Cn3nc(C)c4c3CCN(c3cc(C)nc5c3cnn5C)C4)(CC1)CC2 [compound 71]	14
Cc1nc(N2CCc3c(c(C)nn3CC34CCC(N5CCCCC5)(CC3)CC4)C2)c2c(n1)c(C)nn2C [compound 38]	31
COCCNC12CCC(Cn3nc(C)c4c3CCN(c3cc(C)nc5c3cnn5C)C4)(CC1)CC2 [Compound No. 69]	31

--- query ---
[in] Quickly give me recorded IC50 for Cc1nn(CC23CCC(N)(CC2)CC3)c2c1CN(c1ccnc(-c3ccccn3)c1)CC2 [compound 94]
[out] 1110

###

target: TLR7 (Homo sapiens, UniProt Q9NYK1); construct: Fresh blood was collected from normal human donors; endogenous in cells; assay: huPBMC TLR7 Antagonist IFNα Assay; conditions: human PBMCs stimulated with ssRNA40 10 μg/mL (DOTAP), 14-16 hrs; IFNα2b AlphaLISA read-out
Quantity Name: pIC50
Just the number, please; pIC50 means minus log10 of the concentration in mol/L.

Cc1cc(N2CCc3c(c(C)nn3CC34CCC(N5C[C@H](O)[C@@H](O)C5)(CC3)CC4)C2)c2cnn(C)c2n1	8.70
Cc1cc(N2CCc3c(c(C)nn3CC34CCC(NC(=O)OC5(C)CC5)(CC3)CC4)C2)c2cnn(C)c2n1	8.15
Cc1cc(N2CCc3c(c(C)nn3CC34CCC(N5CCCC5)(CC3)CC4)C2)c2cnn(C)c2n1	8.52

[in] // Input: Cc1cc(N2CCc3c(c(C)nn3CC34CCC(NC5CCC5)(CC3)CO4)C2)c2cnn(C)c2n1 . Output its pIC50 only.
[out] 7.39

###

target: TLR8 (Homo sapiens); test: huPBMC TLR8 Antagonist IL-6 TR-FRET Assay; type: cell-based; parameters: Fresh blood was collected from normal human donors; endogenous in cells; host or cells: human PBMCs from fresh donor blood; settings: human PBMCs stimulated with ssRNA40 1 μg/ml (DOTAP), 14-16 hrs; IL-6 TR-FRET read-out
Recorded log10(IC50) by entry
Short version: log10 scale, IC50, nM.

Solved entries:
Cc1nc(N2CCc3c(c(C)nn3CC34CCC(N5CCCCC5)(CC3)CC4)C2)c2cn[nH]c2n1	1.20
CNC12CCC(Cn3nc(C)c4c3CCN(c3cc(C)nc5c3cnn5C)C4)(CC1)CC2	2.49

[in] Name the recorded log10(IC50) of the compound listed here: COCCNC12CCC(Cn3nc(C)c4c3CCN(c3ccnc(-c5ccccc5)c3)C4)(CC1)CC2
[out] 3.45

[in] Complete the entry with log10(IC50) for Cc1nn(CC23CCC(N4CCCC4)(CC2)CC3)c2c1CN(c1ccnc(-c3ccccc3)c1)CC2
[out] 2.35

###

target: UniProt:Q9NR97; test: huPBMC TLR8 Antagonist IL-6 TR-FRET Assay; format: cell-based; design: Fresh blood was collected from normal human donors; endogenous in cells; host or cells: human PBMCs from fresh donor blood; details: human PBMCs stimulated with ssRNA40 1 μg/ml (DOTAP), 14-16 hrs; IL-6 TR-FRET read-out
Quick reference: IC50 of the listed items.

Please review the following examples before continuing.
Cc1nc(N2CCc3c(c(C)nn3CC34CCC(NC(=O)[C@H]5CNCCO5)(CC3)CC4)C2)c2c(n1)c(C)nn2C	80 nM
COc1ccc(Cn2ncc3c(N4CCc5c(c(C)nn5CC56CCC(N)(CC5)CC6)C4)cc(C)nc32)cc1	1140 nM

With those in mind, consider the next compound.
[in] Determine from records and report IC50 for Cc1cc(N2CCc3c(c(C)nn3CC34CCC(N5CCO[C@H](C)C5)(CC3)CC4)C2)c2cnn(C)c2n1
[out] 6 nM

###

molecular target: TLR7 (Homo sapiens, UniProt Q9NYK1); construct: Fresh blood was collected from normal human donors; endogenous in cells; test: huPBMC TLR7 Antagonist IFNα Assay; conditions: human PBMCs stimulated with ssRNA40 10 μg/mL (DOTAP), 14-16 hrs; IFNα2b AlphaLISA read-out
Quantity Name: IC50 (nM)
Return type: number; implicit unit nM.

Cc1nc(N2CCc3c(c(C)nn3CC34CCC(N5CCOCC5)(CC3)CC4)C2)c2cn[nH]c2n1	24

[in] Please supply the value of reported IC50 for the item CCNCCC(=O)NC12CCC(Cn3nc(C)c4c3CCN(c3cc(C)nc5c3cnn5C)C4)(CC1)CC2
[out] 20

[in] Respond only with IC50 recorded for Cc1cc(N2CCc3c(c(C)nn3CC34CCC(NC(=O)CO)(CC3)CC4)C2)c2cnn(C)c2n1
[out] 10
